Test system: rat hepatic microsomal PTPases
Settings: test compound 50 μM; rat hepatic microsomal fraction; substrate 50 uM, 37 deg.C
Entries whose % Change from Control (PTPase activity) is below -40% take class 1; entries at or above -40% take class 0.

Example entries and their recorded answers appear below.
{"columns": ["compound-structure", "category"],
 "data": [
  ["O=C(O)COc1ccc(-c2cccc3sc4ccccc4c23)cc1", "class 0"],
  ["O=C(O)[C@@H](Cc1ccccc1)Oc1c(Br)cc(-c2c(Br)ccc3sc4ccccc4c23)cc1Br", "class 1"],
  ["O=C(O)[C@@H](CCN1C(=O)c2ccccc2C1=O)Oc1c(Br)cc(-c2c(Br)ccc3sc4ccccc4c23)cc1Br", "class 1"],
  ["Oc1ccc(-c2c(Br)ccc3sc4ccccc4c23)cc1", "class 0"],
  ["O=C(O)COc1ccc(-c2c(Br)ccc3sc4ccccc4c23)cc1", "class 1"]
]}

Hello, I'm reviewing records and need to know if % Change from Control (PTPase activity) of `COC(=O)COc1ccc(-c2c(Br)ccc3sc4ccccc4c23)cc1` is below -40%. Could you check?
class 0

Try `Oc1ccc(-c2cccc3sc4ccccc4c23)cc1` next.
class 1

Try `O=C(O)COc1c(Br)cc(-c2cccc3sc4ccccc4c23)cc1Br` next.
class 1

Try `Oc1c(Br)cc(-c2cccc3sc4ccccc4c23)cc1Br` next.
class 0

Try `O=C(O)[C@@H](Cc1ccccc1)Oc1c(Br)cc(-c2cccc3sc4ccccc4c23)cc1Br` next.
class 1

----------
Entries and their pIC50
Target: Human recombinant PTP1B (hPTP1B) (Homo sapiens)
Sequence (P18031 1-435): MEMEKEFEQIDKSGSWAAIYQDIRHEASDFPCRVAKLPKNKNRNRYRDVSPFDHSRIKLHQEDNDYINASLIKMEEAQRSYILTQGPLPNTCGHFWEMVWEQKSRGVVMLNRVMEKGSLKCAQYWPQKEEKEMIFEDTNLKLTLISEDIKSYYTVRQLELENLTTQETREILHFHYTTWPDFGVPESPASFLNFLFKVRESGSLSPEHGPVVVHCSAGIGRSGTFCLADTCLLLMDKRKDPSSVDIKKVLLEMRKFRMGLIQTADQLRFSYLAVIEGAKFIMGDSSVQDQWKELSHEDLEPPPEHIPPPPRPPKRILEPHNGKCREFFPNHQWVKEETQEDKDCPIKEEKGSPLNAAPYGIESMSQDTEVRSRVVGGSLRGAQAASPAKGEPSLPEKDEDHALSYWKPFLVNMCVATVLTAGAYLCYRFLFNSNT
Lab note — pIC50 values are minus log10 of concentrations in M.

These solved cases illustrate the format of a correct answer.
{"columns": ["molecule", "reported-property", "result"],
 "data": [
  ["O=C(O)[C@@H](CCN1C(=O)c2ccccc2C1=O)Oc1c(Br)cc(-c2c(Br)ccc3sc4ccccc4c23)cc1Br [Example 21]", "pIC50", 5.86],
  ["O=C(O)[C@@H](Cc1ccccc1)Oc1c(Br)cc(-c2c(Br)ccc3sc4ccccc4c23)cc1Br [Example 20]", "pIC50", 6.22],
  ["Oc1c(Br)cc(-c2cccc3sc4ccccc4c23)cc1Br [Example 7]", "pIC50", 5.72]
]}

Lab note: next molecule to report on.
Requested field: pIC50. Item: O=C(O)[C@@H](Cc1ccccc1)Oc1c(Br)cc(-c2cccc3sc4ccccc4c23)cc1Br [Example 19]
5.88

From: patent US6001867A
